Several publications report IC50 on HPK1 (Homo sapiens (Human)); those values are gathered here.
METRIC_NAME: IC50

> print(dat)
                              line.notation                 assay.system  metric.name  experimental.result
1  C[C@H]1CN(c2c(NC(=O)c3ccc(=O)n(-c4c(F)cccc4F)n3)ccc3nn(C45CCC(CC4)C5)cc23)C[C@@H]1N  HPK1 (Homo sapiens (Human))         IC50             < 100 nM
2  Cc1ccc(C#N)cc1-c1cc2nc(Nc3ccc(S(C)(=O)=O)cc3)ncc2c(N)c1F  HPK1 (Homo sapiens (Human))         IC50               424 nM
3  CC(C)n1nc(Cl)c2c(N3C[C@@H](C)[C@@H](N)C3)c(NC(=O)c3ccc(=O)n(-c4c(F)cccc4F)n3)ccc21  HPK1 (Homo sapiens (Human))         IC50             < 100 nM
4  Cn1ccc2c(-c3ncc(Nc4ccc(N5CC[C@H](F)[C@@H](O)C5)cn4)c4c3CNC4=O)ccnc21  HPK1 (Homo sapiens (Human))         IC50             < 100 nM
